Here the recorded PBM E-score is given for each entry.
Molecular target: Hmlalpha2 (UniProt P0CY09)
Sequence: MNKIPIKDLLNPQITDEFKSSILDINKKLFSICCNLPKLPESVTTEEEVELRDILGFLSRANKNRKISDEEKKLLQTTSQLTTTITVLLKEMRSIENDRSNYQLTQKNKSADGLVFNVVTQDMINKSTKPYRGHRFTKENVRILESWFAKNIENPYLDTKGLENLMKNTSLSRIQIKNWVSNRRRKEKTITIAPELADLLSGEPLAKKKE
Assay: PBM E-score (8-mer binding enrichment) (E-score (-0.5 to 0.5)); higher = stronger / more preferred TF binding
Conditions: protein concentration: 200 nM; construct: GST-full length
The full ranking holds about 33,000 sequences; the median of “E-score (-0.5 to 0.5)” is about -0.04, and the highest 2% start at about 0.36. This excerpt belongs to a sample that is enriched for the highest values.

{"biosequence": "ACATGACA", "testedTarget": "Hmlalpha2 (UniProt P0CY09)", "PBM E-score": 0.412}
{"biosequence": "GGTGGACA", "testedTarget": "Hmlalpha2 (UniProt P0CY09)", "PBM E-score": -0.0373}
{"biosequence": "CCATGACC", "testedTarget": "Hmlalpha2 (UniProt P0CY09)", "PBM E-score": -0.348}
{"biosequence": "GCATGACC", "testedTarget": "Hmlalpha2 (UniProt P0CY09)", "PBM E-score": -0.191}
{"biosequence": "CCATGACA", "testedTarget": "Hmlalpha2 (UniProt P0CY09)", "PBM E-score": 0.0453}
{"biosequence": "ATACTATG", "testedTarget": "Hmlalpha2 (UniProt P0CY09)", "PBM E-score": 0.0473}
{"biosequence": "CTTGAAAC", "testedTarget": "Hmlalpha2 (UniProt P0CY09)", "PBM E-score": -0.111}
{"biosequence": "GCATGCGA", "testedTarget": "Hmlalpha2 (UniProt P0CY09)", "PBM E-score": 0.0698}
{"biosequence": "CTCGTAGA", "testedTarget": "Hmlalpha2 (UniProt P0CY09)", "PBM E-score": -0.0578}
{"biosequence": "GCTGGGAC", "testedTarget": "Hmlalpha2 (UniProt P0CY09)", "PBM E-score": -0.263}
{"biosequence": "CGGGTAAA", "testedTarget": "Hmlalpha2 (UniProt P0CY09)", "PBM E-score": 0.234}

The values you see were collected from the supplement of paper PMC3334620.
